# Tested on: HT-29
# protocol summary: Antitumor activity against human HT-29 cells assessed as inhibition of cell viability incubated for 48 hrs by MTT assay
# Format: functional, cell-based
# assay context: HT-29, 48 h
Please go through the items and note down their IC50.

### Prompt Consider the compound CCOC(=O)C(=NNc1sc2c(c1C(=O)OCC)CCC2)C(=O)OCC and give its measured IC50.
### Response > 100 µM

### Prompt // query: CCOC(=O)c1c(NN=C(C(C)=O)C(C)=O)sc2c1CCC2
### Response 18.7 µM

### Prompt // query: N#Cc1c(O)c2c3c(sc2[nH]c1=O)CCCCC3
### Response 27.3 µM

### Prompt // query: CCOC(=O)c1c(NC(=O)CC(C)=O)sc2c1CCCCC2
### Response > 100 µM

### Prompt // query: CCOC(=O)c1c(NC(=O)CC#N)sc2c1CCCCC2
### Response > 100 µM

### Prompt // query: CCOC(=O)c1c(-n2cnnn2)sc2c1CCCCC2
### Response > 100 µM

### Prompt // query: CC1=NN=C(C)C1=NNc1sc2c(c1C(=O)NN)CCCCC2
### Response 5.7 µM

### Prompt // query: CC1=NNC(=O)/C1=N\Nc1sc2c(c1C(=O)NN)CCCCC2
### Response 66.7 µM

### Prompt // query: CCOC(=O)c1c(N/N=C2\C(=O)NN=C2C)sc2c1CCC2
### Response 84.5 µM

### Prompt // query: CCOC(=O)C1(C(C)=O)N=Nc2sc3c(c2C1=O)CCCCC3 (stereo unspecified)
### Response 78.6 µM

### Prompt // query: CCOC(=O)c1c(N/N=C2\C(=O)NN=C2C)sc2c1CCCCC2
### Response 88.1 µM
